Target chain: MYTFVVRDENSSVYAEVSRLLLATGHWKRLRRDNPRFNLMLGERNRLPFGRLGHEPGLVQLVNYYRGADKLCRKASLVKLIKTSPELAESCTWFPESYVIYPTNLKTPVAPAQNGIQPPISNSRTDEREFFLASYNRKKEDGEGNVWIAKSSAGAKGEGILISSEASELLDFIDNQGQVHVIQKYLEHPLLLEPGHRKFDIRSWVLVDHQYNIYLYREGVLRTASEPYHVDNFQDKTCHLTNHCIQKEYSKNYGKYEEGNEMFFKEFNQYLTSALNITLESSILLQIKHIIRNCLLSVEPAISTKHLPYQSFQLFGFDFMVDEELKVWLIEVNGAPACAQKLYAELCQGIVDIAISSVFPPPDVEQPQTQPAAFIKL
pKd: −log10 of the molar value.
Decision: pKd compared against 6; not below it gives 1 (yes), below it gives 0 (no).

Solved entries (count: 4):
CC1=CC(=O)O[C@@H]1[C@@H](O)/C=C(\C)CC[C@@H]1[C@@]2(C)CCC[C@@](C)(CO)[C@@H]2[C@@H](O)C[C@@]1(C)O; 0 (no)
C=C1C[C@H](O)[C@@H]2[C@](C)(CCC[C@@]2(C)C=O)[C@H]1CC/C(C)=C/[C@H](O)[C@H]1OC(=O)C=C1C; 0 (no)
CC1=CC(=O)O/C1=C\C=C(/C)CC[C@@H]1[C@@]2(C)CCC[C@@](C)(C(=O)O)[C@@H]2[C@@H](O)C[C@@]1(C)O; 1 (yes)
CC1=CC(=O)O[C@@H]1[C@@H](O)/C=C(\C)CC[C@@H]1[C@@]2(C)CCC[C@@](C)(C(=O)O)[C@@H]2[C@@H](O)C[C@@]1(C)O; 0 (no)

In: Please tell me: is the compound CC1=CC(=O)O[C@@H]1[C@@H](O)/C=C(\C)CC[C@@H]1[C@@]2(C)CCC[C@@](C)(C=O)[C@@H]2[C@@H](O)C[C@@]1(C)O at or over 6 in terms of pKd?
Out: 0 (no)
